# System: RPMI1788 cells (human normal B cell line)
# assay notes: Cell death inducing effect on RPMI1788 normal B cells, trypan blue staining
# Assay type: cell-based
# test parameters: Homo sapiens, RPMI-1788; RPMI1788 (normal B lymphocyte), cell viability
Hi there, I'd appreciate the recorded IC50 for every entry that follows.

These solved cases illustrate the format of a correct answer.
smiles input	measure name	result
C=CCOc1cc(O)cc2oc3cc(O)c(O)cc3c(=O)c12	IC50	> 100 µM
CCC(=O)OC[C@H]1O[C@@H](c2c(OC(=O)CC)cc3oc4cc(OC(=O)CC)c(OC(=O)CC)cc4c(=O)c3c2OC(=O)CC)[C@H](OC(=O)CC)[C@@H](OC(=O)CC)[C@@H]1OC(=O)CC	IC50	> 100 µM
CCCC(=O)OC[C@H]1O[C@@H](c2c(O)cc3oc4cc(O)c(O)cc4c(=O)c3c2OC(=O)CCC)[C@H](OC(=O)CCC)[C@@H](OC(=O)CCC)[C@@H]1OC(=O)CCC	IC50	75 µM
CCCC(=O)OC[C@H]1O[C@@H](c2c(O)cc3oc4cc(O)c(O)cc4c(=O)c3c2O)[C@H](OC(=O)CCC)[C@@H](OC(=O)CCC)[C@@H]1OC(=O)CCC	IC50	69 µM
O=c1c2cc(O)c(O)cc2oc2cc(O)cc(OCCO)c12	IC50	> 100 µM

Dear colleague, could you please provide IC50 for the molecules listed below?
1. CCCCC(=O)OC[C@H]1O[C@@H](c2c(O)cc3oc4cc(O)c(O)cc4c(=O)c3c2O)[C@H](OC(=O)CCCC)[C@@H](OC(=O)CCCC)[C@@H]1OC(=O)CCCC
2. CCCCC(=O)OC[C@H]1O[C@@H](c2c(O)cc3oc4cc(O)c(O)cc4c(=O)c3c2OC(=O)CCCC)[C@H](OC(=O)CCCC)[C@@H](OC(=O)CCCC)[C@@H]1OC(=O)CCCC
3. CC(C)(C)C(=O)OC[C@H]1O[C@@H](c2c(O)cc3oc4cc(O)c(O)cc4c(=O)c3c2O)[C@H](OC(=O)C(C)(C)C)[C@@H](OC(=O)C(C)(C)C)[C@@H]1OC(=O)C(C)(C)C
4. CCCCO[C@@H]1[C@@H](OCCCC)[C@H](c2c(O)cc3oc4cc(O)c(O)cc4c(=O)c3c2O)O[C@H](COC(=O)CCC)[C@H]1OC(=O)CCC
5. CCC(=O)OC[C@H]1O[C@@H](c2c(O)cc3oc4cc(O)c(O)cc4c(=O)c3c2O)[C@H](OC(=O)CC)[C@@H](OC(=O)CC)[C@@H]1OC(=O)CC

output:
1: 2.76 µM; 2: 0.416 µM; 3: 71 µM; 4: 58 µM; 5: > 100 µM

----------
# System: KMS-28BM cells (myeloma cell line)
# assay notes: Cell death inducing effect on KMS-28BM cells, trypan blue staining
# Type: cell-based
# test parameters: KMS-28BM (myeloma), cell viability
# Description: KMS-28BM cells (myeloma cell line) were cultured under 5% CO2 at 37° C. The culture medium used RPMI-1640 medium with 100 μg/mL penicillin, 100 U/mL streptomycin and fetal bovine serum. KMS-28BM cells were seeded into 96-well plates and incubated with each concentration of the compounds was added, and cell viability was determined by the trypan blue staining. For controls, only 0.5% DMSO (diluted in PBS) used to dissolve the compounds was added. […]
Hi there, I'd appreciate the recorded IC50 for every entry that follows.
One number for each entry, in nM.

These solved cases illustrate the format of a correct answer.
compound	IC50 (nM)
CCC(=O)OC[C@H]1O[C@@H](c2c(OC(=O)CC)cc3oc4cc(OC(=O)CC)c(OC(=O)CC)cc4c(=O)c3c2OC(=O)CC)[C@H](OC(=O)CC)[C@@H](OC(=O)CC)[C@@H]1OC(=O)CC	770
O=c1c2cc(O)c(O)cc2oc2cc(O)cc(O)c12 [norathyriol, reference compound]	1500
C=CCOc1cc(O)cc2oc3cc(O)c(O)cc3c(=O)c12	2100

Dear colleague, could you please provide IC50 for the compounds listed below?
1. CCC(=O)OC[C@H]1O[C@@H](c2c(O)cc3oc4cc(O)c(O)cc4c(=O)c3c2O)[C@H](OC(=O)CC)[C@@H](OC(=O)CC)[C@@H]1OC(=O)CC
2. CCCCC(=O)OC[C@H]1O[C@@H](c2c(O)cc3oc4cc(O)c(O)cc4c(=O)c3c2O)[C@H](OC(=O)CCCC)[C@@H](OC(=O)CCCC)[C@@H]1OC(=O)CCCC
3. CCCC(=O)OC[C@H]1O[C@@H](c2c(O)cc3oc4cc(O)c(O)cc4c(=O)c3c2O)[C@H](OC(=O)CCC)[C@@H](OC(=O)CCC)[C@@H]1OC(=O)CCC
4. CCCC(=O)OC[C@H]1O[C@@H](c2c(O)cc3oc4cc(O)c(O)cc4c(=O)c3c2OC(=O)CCC)[C@H](OC(=O)CCC)[C@@H](OC(=O)CCC)[C@@H]1OC(=O)CCC

output:
[210, 5300, 80, 210]

----------
# System: Rec-1 cells (mantle cell lymphoma cell line)
# assay notes: Cell death inducing effect on Rec-1 cells, trypan blue staining
# Type: cell-based
# test parameters: Homo sapiens, Rec1; Rec-1 (mantle cell lymphoma), cell viability
pIC50: −log10 of the molar value.
Just so you know, the groups by pIC50 go like this: bucket 1 = under 5, bucket 2 = from 5 up to 6, bucket 3 = 6 and over

Check out these entries, answers already filled in.
compound	target under test	category label
O=c1c2cc(O)c(O)cc2oc2cc(O)cc(O)c12 [norathyriol, reference compound]	Rec-1 cells (mantle cell lymphoma cell line)	bucket 1
CCCC(=O)OC[C@H]1O[C@@H](c2c(O)cc3oc4cc(O)c(O)cc4c(=O)c3c2O)[C@H](OC(=O)CCC)[C@@H](OC(=O)CCC)[C@@H]1OC(=O)CCC	Rec-1 cells (mantle cell lymphoma cell line)	bucket 3
C=CCOc1cc(O)cc2oc3cc(O)c(O)cc3c(=O)c12	Rec-1 cells (mantle cell lymphoma cell line)	bucket 1
CCCCC(=O)OC[C@H]1O[C@@H](c2c(O)cc3oc4cc(O)c(O)cc4c(=O)c3c2O)[C@H](OC(=O)CCCC)[C@@H](OC(=O)CCCC)[C@@H]1OC(=O)CCCC	Rec-1 cells (mantle cell lymphoma cell line)	bucket 2
CCCCO[C@@H]1[C@@H](OCCCC)[C@H](c2c(O)cc3oc4cc(O)c(O)cc4c(=O)c3c2O)O[C@H](COC(=O)CCC)[C@H]1OC(=O)CCC	Rec-1 cells (mantle cell lymphoma cell line)	bucket 3

input: Which pIC50 category applies to CC(C)(C)C(=O)OC[C@H]1O[C@@H](c2c(O)cc3oc4cc(O)c(O)cc4c(=O)c3c2O)[C@H](OC(=O)C(C)(C)C)[C@@H](OC(=O)C(C)(C)C)[C@@H]1OC(=O)C(C)(C)C here?
output: bucket 3

input: Which pIC50 category applies to CCC(=O)OC[C@H]1O[C@@H](c2c(OC(=O)CC)cc3oc4cc(OC(=O)CC)c(OC(=O)CC)cc4c(=O)c3c2OC(=O)CC)[C@H](OC(=O)CC)[C@@H](OC(=O)CC)[C@@H]1OC(=O)CC here?
output: bucket 2

input: Which pIC50 category applies to CCCCC(=O)OC[C@H]1O[C@@H](c2c(O)cc3oc4cc(O)c(O)cc4c(=O)c3c2OC(=O)CCCC)[C@H](OC(=O)CCCC)[C@@H](OC(=O)CCCC)[C@@H]1OC(=O)CCCC here?
output: bucket 2

----------
# System: phospho-IKK
# assay notes: Immunoblotting of phospho-IKK in KMS-28BM cells
# Format: cell-based
# test parameters: 72 h, vs control, same concentrations as for phospho-NIK (0.005-100 μM)
measure name: phospho-IKK band density (anti-phospho-IKK antibody)

smiles input	target under test	result
CCCC(=O)OC[C@H]1O[C@@H](c2c(O)cc3oc4cc(O)c(O)cc4c(=O)c3c2OC(=O)CCC)[C@H](OC(=O)CCC)[C@@H](OC(=O)CCC)[C@@H]1OC(=O)CCC	phospho-IKK	decrease in band density
CCC(=O)OC[C@H]1O[C@@H](c2c(OC(=O)CC)cc3oc4cc(OC(=O)CC)c(OC(=O)CC)cc4c(=O)c3c2OC(=O)CC)[C@H](OC(=O)CC)[C@@H](OC(=O)CC)[C@@H]1OC(=O)CC	phospho-IKK	decrease in band density

----------
# Tested on: RPMI8226/B cells (bortezomib-resistant myeloma cell line)
# assay notes: Cell death inducing effect on RPMI8226/B cells, trypan blue staining
# Assay type: cell-based
# test parameters: Homo sapiens, RPMI-8226; RPMI8226/B (myeloma; bortezomib resistance), cell viability
measure name: IC50

These solved cases illustrate the format of a correct answer.
smiles input	IC50
CCCCC(=O)OC[C@H]1O[C@@H](c2c(O)cc3oc4cc(O)c(O)cc4c(=O)c3c2O)[C@H](OC(=O)CCCC)[C@@H](OC(=O)CCCC)[C@@H]1OC(=O)CCCC	79 nM
CC(C)(C)C(=O)OC[C@H]1O[C@@H](c2c(O)cc3oc4cc(O)c(O)cc4c(=O)c3c2O)[C@H](OC(=O)C(C)(C)C)[C@@H](OC(=O)C(C)(C)C)[C@@H]1OC(=O)C(C)(C)C	71 nM
CCCC(=O)OC[C@H]1O[C@@H](c2c(O)cc3oc4cc(O)c(O)cc4c(=O)c3c2OC(=O)CCC)[C@H](OC(=O)CCC)[C@@H](OC(=O)CCC)[C@@H]1OC(=O)CCC	91 nM

Now let's try a different one.
input: Given CCC(=O)OC[C@H]1O[C@@H](c2c(O)cc3oc4cc(O)c(O)cc4c(=O)c3c2O)[C@H](OC(=O)CC)[C@@H](OC(=O)CC)[C@@H]1OC(=O)CC , state its recorded IC50.
output: 69 nM
